Target: UniProt Q12809
Sequence (Q12809 whole entry): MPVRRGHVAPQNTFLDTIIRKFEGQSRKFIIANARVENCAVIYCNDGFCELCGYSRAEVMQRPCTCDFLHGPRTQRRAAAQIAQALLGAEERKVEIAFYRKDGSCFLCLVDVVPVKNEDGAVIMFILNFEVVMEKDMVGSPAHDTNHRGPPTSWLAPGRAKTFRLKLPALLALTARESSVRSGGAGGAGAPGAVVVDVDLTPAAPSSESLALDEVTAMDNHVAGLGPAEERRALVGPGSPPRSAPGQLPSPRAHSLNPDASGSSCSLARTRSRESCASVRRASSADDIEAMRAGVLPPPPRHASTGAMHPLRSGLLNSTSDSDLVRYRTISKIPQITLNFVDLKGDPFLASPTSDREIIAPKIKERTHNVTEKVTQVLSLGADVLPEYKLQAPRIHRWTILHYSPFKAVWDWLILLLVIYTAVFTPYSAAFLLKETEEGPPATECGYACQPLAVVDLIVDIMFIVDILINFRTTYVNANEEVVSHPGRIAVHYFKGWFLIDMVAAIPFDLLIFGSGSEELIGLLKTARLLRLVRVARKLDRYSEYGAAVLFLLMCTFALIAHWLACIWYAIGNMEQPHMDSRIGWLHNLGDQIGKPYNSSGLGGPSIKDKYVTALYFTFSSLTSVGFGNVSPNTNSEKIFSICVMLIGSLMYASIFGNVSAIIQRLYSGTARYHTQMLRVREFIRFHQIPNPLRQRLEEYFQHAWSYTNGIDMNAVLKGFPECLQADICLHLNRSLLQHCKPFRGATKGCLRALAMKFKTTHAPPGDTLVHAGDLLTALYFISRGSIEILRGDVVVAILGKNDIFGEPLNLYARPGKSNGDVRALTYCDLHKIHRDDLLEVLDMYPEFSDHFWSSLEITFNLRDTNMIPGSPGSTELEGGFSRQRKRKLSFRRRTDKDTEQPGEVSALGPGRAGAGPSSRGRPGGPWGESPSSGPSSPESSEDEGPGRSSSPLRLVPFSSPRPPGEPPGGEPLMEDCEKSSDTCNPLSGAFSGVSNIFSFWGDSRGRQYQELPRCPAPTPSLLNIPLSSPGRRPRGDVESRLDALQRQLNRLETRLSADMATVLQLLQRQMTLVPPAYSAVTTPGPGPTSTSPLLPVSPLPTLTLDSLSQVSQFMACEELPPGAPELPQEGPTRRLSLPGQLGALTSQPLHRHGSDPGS
Assay: Inhibition of hERG by Qpatch assay
Assay type: toxicity
pIC50: −log10 of the molar value.
reportedEndpoint: pIC50

# molecule `Cc1csc([C@](C)(O)c2nnc(Nc3ccn(Cc4csc(C)n4)n3)s2)n1` ; its pIC50 = < 4.30

----------
Assay: Solubility of the compound in microbiological medium at pH 6.8
Assay type: physicochemical
reportedEndpoint: solubility (µM)
// units = µM; emit number, no label

# compound `Cc1cn2c(C(=O)NCc3ccc(N4CCN(c5ccc(C(F)(F)F)cn5)CC4)c(F)c3)c(C)nc2s1` ; its solubility = 50

----------
Test: in vitro
Details: human, dermal fibroblasts
Description: Cytotoxicity against human dermal fibroblasts assessed as cell growth inhibition treated for 48 hrs by resazurin dye based assay
reportedEndpoint: CC50 at 48 h

# compound `CNC(=O)c1c(-c2ccc(O)cc2)oc2ccc(O)c(CN3CCCCC3)c12` ; its CC50 at 48 h = > 100 µM
